Protein target, amino acids: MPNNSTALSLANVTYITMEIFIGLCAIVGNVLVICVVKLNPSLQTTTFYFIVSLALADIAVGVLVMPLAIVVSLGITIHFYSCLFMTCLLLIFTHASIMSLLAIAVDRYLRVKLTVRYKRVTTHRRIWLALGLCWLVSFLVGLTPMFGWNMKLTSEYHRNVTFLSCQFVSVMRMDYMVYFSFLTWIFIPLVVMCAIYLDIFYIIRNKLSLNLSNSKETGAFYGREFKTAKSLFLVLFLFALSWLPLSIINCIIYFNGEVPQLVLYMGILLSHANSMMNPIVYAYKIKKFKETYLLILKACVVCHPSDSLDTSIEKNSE
OBSERVATION_TYPE: Ki (nM)

• CCNC(=O)[C@H]1OC(n2cnc3c(NC(=O)Nc4ccc(S(=O)(=O)NC(C)(C)C)cc4)ncnc32)C(O)C1O (single isomer, unassigned) = 20
• CCNC(=O)[C@H]1OC(n2cnc3c(NC(=O)Nc4ccc(S(=O)(=O)NC56CC7CC(CC(C7)C5)C6)cc4)ncnc32)C(O)C1O (single isomer, unassigned) = 35
• CCCNS(=O)(=O)c1ccc(NC(=O)Nc2ncnc3c2ncn3C2O[C@H](C(=O)NCC)C(O)C2O)cc1 (single isomer, unassigned) = 25

---

This section presents compounds with their documented Ki values.
# TESTED_SYSTEM: Adenosine receptor A3 (Homo sapiens, UniProt P0DMS8)
# Sequence (P0DMS8 whole entry): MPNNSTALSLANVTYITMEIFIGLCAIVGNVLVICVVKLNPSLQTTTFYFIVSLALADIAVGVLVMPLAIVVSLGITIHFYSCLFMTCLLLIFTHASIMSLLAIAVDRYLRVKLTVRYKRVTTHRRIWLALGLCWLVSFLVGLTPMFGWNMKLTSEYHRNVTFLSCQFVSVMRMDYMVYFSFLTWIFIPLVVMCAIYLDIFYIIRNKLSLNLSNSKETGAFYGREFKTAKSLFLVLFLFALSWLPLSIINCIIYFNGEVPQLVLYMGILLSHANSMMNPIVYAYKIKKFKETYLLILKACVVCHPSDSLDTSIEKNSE
OBSERVATION_TYPE: Ki (nM)

* C=CCN(C)S(=O)(=O)c1ccc(NC(=O)Nc2ncnc3c2ncn3C2O[C@H](C(=O)NCC)C(O)C2O)cc1 (single isomer, unassigned) | 10
* CCNC(=O)[C@H]1OC(n2cnc3c(NC(=O)Nc4ccc(S(=O)(=O)N5CC=CC5)cc4)ncnc32)C(O)C1O (single isomer, unassigned) | 19
* CCNC(=O)[C@H]1OC(n2cnc3c(NC(=O)Nc4ccc(S(=O)(=O)N(CCCl)CCCl)cc4)ncnc32)C(O)C1O (single isomer, unassigned) | 23

---

# TESTED_SYSTEM: Adenosine receptors; A1 & A3 (Homo sapiens) (UniProt P30542+P0DMS8)
# PROCEDURE_TEXT: Ratio of binding affinity for Adenosine A1 and Adenosine A3 receptors
# Format: protein assay
OBSERVATION_TYPE: Ratio

* CCCCCNS(=O)(=O)c1ccc(NC(=O)Nc2ncnc3c2ncn3C2O[C@H](C(=O)NCC)C(O)C2O)cc1 (single isomer, unassigned) | 5.56
* CCNC(=O)[C@H]1OC(n2cnc3c(NC(=O)Nc4ccc(S(=O)(=O)N5CC=CC5)cc4)ncnc32)C(O)C1O (single isomer, unassigned) | 13.2
* CCCNS(=O)(=O)c1ccc(NC(=O)Nc2ncnc3c2ncn3C2O[C@H](C(=O)NCC)C(O)C2O)cc1 (single isomer, unassigned) | 11.6

---

# TESTED_SYSTEM: Adenosine receptors; A1 & A3 (Homo sapiens) (UniProt P30542+P0DMS8)
# PROCEDURE_TEXT: Ratio of binding affinity for Adenosine A1 and Adenosine A3 receptors
# Assay type: protein assay
OBSERVATION_TYPE: Ratio

• CCNC(=O)[C@H]1O[C@@H](n2cnc3c(NC(=O)Nc4ccc(S(N)(=O)=O)cc4)ncnc32)C(O)C1O (single isomer, unassigned) = 2.03
• CCNC(=O)[C@H]1OC(n2cnc3c(NC(=O)Nc4ccc(S(=O)(=O)N(CCCl)CCCl)cc4)ncnc32)C(O)C1O (single isomer, unassigned) = 31.7
• CCNC(=O)[C@H]1OC(n2cnc3c(NC(=O)Nc4ccc(S(=O)(=O)NCC)cc4)ncnc32)C(O)C1O (single isomer, unassigned) = 10.9

---

Measured inhibition, listed per entry.
# TESTED_SYSTEM: UniProtKB P29274
# Sequence (P29274 whole entry): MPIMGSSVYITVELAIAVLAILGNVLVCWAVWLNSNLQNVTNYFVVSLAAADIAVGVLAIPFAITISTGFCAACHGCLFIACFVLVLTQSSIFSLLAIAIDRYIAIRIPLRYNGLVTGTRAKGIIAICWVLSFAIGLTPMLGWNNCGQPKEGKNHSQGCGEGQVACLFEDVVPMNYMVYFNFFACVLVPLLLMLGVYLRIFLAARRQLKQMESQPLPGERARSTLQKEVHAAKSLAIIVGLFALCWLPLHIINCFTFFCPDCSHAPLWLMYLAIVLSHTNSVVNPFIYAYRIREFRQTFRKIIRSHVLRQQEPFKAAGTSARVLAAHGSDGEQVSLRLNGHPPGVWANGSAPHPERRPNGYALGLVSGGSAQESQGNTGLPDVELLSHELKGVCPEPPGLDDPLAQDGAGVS
# PROCEDURE_TEXT: Inhibition of [3H]CGS-21680 binding to Adenosine A2A receptor expressed in CHO cells
# Type: cell-based
# Design: concentration or dose not given beside the values
# SETUP_CONDITIONS: concentration not given here
OBSERVATION_TYPE: inhibition (%)

- CCNC(=O)[C@H]1OC(n2cnc3c(NC(=O)Nc4ccc(S(=O)(=O)NC5CCCCC5)cc4)ncnc32)C(O)C1O (single isomer, unassigned): 25
- CCNC(=O)[C@H]1OC(n2cnc3c(NC(=O)Nc4ccc(S(=O)(=O)NC5CCCC5)cc4)ncnc32)C(O)C1O (single isomer, unassigned): 19
- CCNC(=O)[C@H]1OC(n2cnc3c(NC(=O)Nc4ccc(S(=O)(=O)NCc5ccccc5)cc4)ncnc32)C(O)C1O (single isomer, unassigned): 30
- CCNC(=O)[C@H]1OC(n2cnc3c(NC(=O)Nc4ccc(S(=O)(=O)N5CCCC5)cc4)ncnc32)C(O)C1O (single isomer, unassigned): 23
- CCNC(=O)[C@H]1OC(n2cnc3c(NC(=O)Nc4ccc(S(=O)(=O)NC(C)(C)C)cc4)ncnc32)C(O)C1O (single isomer, unassigned): 32
- CCCN(CCC)S(=O)(=O)c1ccc(NC(=O)Nc2ncnc3c2ncn3C2O[C@H](C(=O)NCC)C(O)C2O)cc1 (single isomer, unassigned): 15
- CCNC(=O)[C@H]1OC(n2cnc3c(NC(=O)Nc4ccc(S(=O)(=O)N(CC)CC)cc4)ncnc32)C(O)C1O (single isomer, unassigned): 28
- CCNC(=O)[C@H]1OC(n2cnc3c(NC(=O)Nc4ccc(S(=O)(=O)N5CC=CC5)cc4)ncnc32)C(O)C1O (single isomer, unassigned): 17
- CCNC(=O)[C@H]1OC(n2cnc3c(NC(=O)Nc4ccc(S(=O)(=O)N5CCOCC5)cc4)ncnc32)C(O)C1O (single isomer, unassigned): 20
- CCCCCNS(=O)(=O)c1ccc(NC(=O)Nc2ncnc3c2ncn3C2O[C@H](C(=O)NCC)C(O)C2O)cc1 (single isomer, unassigned): 32
- CCNC(=O)[C@H]1OC(n2cnc3c(NC(=O)Nc4ccc(S(=O)(=O)N(C)C)cc4)ncnc32)C(O)C1O (single isomer, unassigned): 21
- CCNC(=O)[C@H]1OC(n2cnc3c(NC(=O)Nc4ccc(S(=O)(=O)Nc5ccc(OC)cc5)cc4)ncnc32)C(O)C1O (single isomer, unassigned): 34

---

Target protein (sequence): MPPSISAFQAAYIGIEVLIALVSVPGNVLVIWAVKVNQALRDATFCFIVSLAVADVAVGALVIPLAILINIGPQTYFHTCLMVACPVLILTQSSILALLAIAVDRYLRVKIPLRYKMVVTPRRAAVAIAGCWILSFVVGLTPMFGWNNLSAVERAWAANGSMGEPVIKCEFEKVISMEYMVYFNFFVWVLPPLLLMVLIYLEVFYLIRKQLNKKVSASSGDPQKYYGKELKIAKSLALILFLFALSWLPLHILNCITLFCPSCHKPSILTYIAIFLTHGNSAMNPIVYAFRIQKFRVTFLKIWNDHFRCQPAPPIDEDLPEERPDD
pKi: −log10 of the molar value.
Overview of recorded pKi for various compounds
OBSERVATION_TYPE: pKi

- CCNC(=O)[C@H]1OC(n2cnc3c(NC(=O)Nc4ccc(S(=O)(=O)NCc5ccccc5)cc4)ncnc32)C(O)C1O (single isomer, unassigned): 6.52
- CCNC(=O)[C@H]1OC(n2cnc3c(NC(=O)Nc4ccc(S(=O)(=O)Nc5ccc(OC)cc5)cc4)ncnc32)C(O)C1O (single isomer, unassigned): 6.55
- CCNC(=O)[C@H]1OC(n2cnc3c(NC(=O)Nc4ccc(S(=O)(=O)N(C)C)cc4)ncnc32)C(O)C1O (single isomer, unassigned): 6.55
- CCNC(=O)[C@H]1OC(n2cnc3c(NC(=O)Nc4ccc(S(=O)(=O)N5CCOCC5)cc4)ncnc32)C(O)C1O (single isomer, unassigned): 6.14
- CCNC(=O)[C@H]1OC(n2cnc3c(NC(=O)Nc4ccc(S(=O)(=O)NCC)cc4)ncnc32)C(O)C1O (single isomer, unassigned): 6.60
- CCNC(=O)[C@H]1OC(n2cnc3c(NC(=O)Nc4ccc(S(=O)(=O)NC5CCCC5)cc4)ncnc32)C(O)C1O (single isomer, unassigned): 6.38
